tested on: OVCAR-5; experiment: NCI tumour cell line growth inhibition, 48 h
Activity calls are given as the source filed them. Rule as the data show it: active = GI50 up to about 1.1 µM and inactive = higher.
Listed here are molecules together with their documented GI50.

molecule | study target | GI50
O=C(CC(C(=O)c1cccs1)c1cccs1)c1ccsc1 (stereo unspecified) | OVCAR-5 | > 100 µM (inactive)
CC(=O)N1OC(C)CC1Nc1ccc(Br)cc1 (stereo unspecified) | OVCAR-5 | 96.2 µM (inactive)
S=C(S)NCCN1CCNCC1 | OVCAR-5 | > 100 µM (inactive)
CC(C)[Si](OC12CCC(CC1O)CC2C(=O)O)(C(C)C)C(C)C (stereo unspecified) | OVCAR-5 | 14 µM (inactive)
COc1cc2c3c(cc(Cl)nc3c1OC)C(O)(CC(C)=O)C(=O)N2 (stereo unspecified) | OVCAR-5 | > 42.4 µM (inactive)
CC(=O)Nc1ccc(C(O)/C(=N/N)c2nc3ccc(Cl)cc3nc2O)cc1 (stereo unspecified) | OVCAR-5 | > 100 µM (inactive)
